# Tested on: SUM229PE
# EXPERIMENT NOTES: area over the GR curve, 72 h; higher = more effect
RESULT TYPE: area over the GR curve (GR)
Kindly provide the numeric value in GR only, without the unit symbol.

Some solved entries appear below for comparison.
O=C(c1cc(Cc2n[nH]c(=O)c3ccccc23)ccc1F)N1CCN(C(=O)C2CC2)CC1 [Olaparib/AZD2281] (max 10 µM)    0.0365
CN(C)CC[C@H](CSc1ccccc1)Nc1ccc(S(=O)(=O)NC(=O)c2ccc(N3CCN(Cc4ccccc4-c4ccc(Cl)cc4)CC3)cc2)cc1[N+](=O)[O-] [ABT-737] (max 10 µM)    0.0913
Cc1cc(C(C)Nc2ccccc2)c2nc(N3CCOCC3)cc(=O)n2c1 (stereo unspecified) [TGX221] (max 10 µM)    -0.0167
COc1cc(N2CCN(C)CC2)ccc1Nc1ncc2c(n1)N(C)c1ccccc1C(=O)N2CC(F)(F)F    0.0104
CCOc1cc2ncc(C#N)c(Nc3ccc(OCc4ccccn4)c(Cl)c3)c2cc1NC(=O)/C=C/CN(C)C [Neratinib/HKI272] (max 3.162 µM)    0.24

In the following, a different molecule is considered.
Input: area over the GR curve for COc1ccc2c(c1)[C@]1(C[C@H]1c1ccc3c(/C=C/c4ccc(CN5C[C@@H](C)O[C@@H](C)C5)cc4)n[nH]c3c1)C(=O)N2 ?
Output: 0.675

====

# System: HCC1569
# EXPERIMENT NOTES: area over the GR curve, 72 h; higher = more effect
RESULT TYPE: area over the GR curve (GR)
Kindly provide the numeric value in GR only, without the unit symbol.

CC(=O)c1c(C)c2cnc(Nc3ccc(N4CCNCC4)cn3)nc2n(C2CCCC2)c1=O (max 3.162 µM)    0.0095
CN(C)C/C=C/C(=O)Nc1ccc(C(=O)N2CCC[C@@H](Nc3ncc(Cl)c(-c4c[nH]c5ccccc45)n3)C2)cc1 [THZ531] (max 1 µM)    0.312
CNc1nc(-c2ccc3c(N)n[nH]c3c2)cc(N2C[C@@H](C(=O)NC3CCCCC3)CC[C@H]2C)n1 (max 10 µM)    0.114

In the following, a different compound is considered.
Input: area over the GR curve for Cc1cc(Nc2ncc(Cl)c(Nc3ccccc3S(=O)(=O)C(C)C)n2)c(OC(C)C)cc1C1CCNCC1 [Ceritinib/LDK378] (max 10 µM) ?
Output: 0.124

====

# System: MDAMB231
# EXPERIMENT NOTES: area over the GR curve, 72 h; higher = more effect
The following molecules are listed with their measured area over the GR curve values.
Kindly provide the numeric value in GR only, without the unit symbol.

Some solved entries appear below for comparison.
COc1ccc2c(c1)[C@]1(C[C@H]1c1ccc3c(/C=C/c4ccc(CN5C[C@@H](C)O[C@@H](C)C5)cc4)n[nH]c3c1)C(=O)N2    0.765
CO[C@@H](C)Cn1c(=O)n(C)c2cnc3ccc(-c4cncc(C(C)(C)O)c4)cc3c21 (max 10 µM)    0.607
CN(C)C/C=C/C(=O)Nc1ccc(O[C@@H]2CCC[C@@H](Nc3ncc(Cl)c(-c4c[nH]c5ccccc45)n3)C2)cc1 [BSJ-01-175] (max 10 µM)    0.991

In the following, a different molecule is considered.
Input: area over the GR curve for N.N.[Cl][Pt][Cl] [Cisplatin] (max 10 µM) ?
Output: 0.15

====

# System: AU565
# EXPERIMENT NOTES: area over the GR curve, 72 h; higher = more effect
The following compounds are listed with their measured area over the GR curve values.
Kindly provide the numeric value in GR only, without the unit symbol.

CC(=O)c1c(C)c2cnc(Nc3ccc(N4CCNCC4)cn3)nc2n(C2CCCC2)c1=O (max 3.162 µM)    0.296

Input: area over the GR curve for COc1cc2nccc(Oc3ccc(NC(=O)C4(C(=O)Nc5ccc(F)cc5)CC4)cc3)c2cc1OC [Cabozantinib] (max 10 µM) ?
Output: -0.0067

Input: area over the GR curve for Cc1nc(Nc2ncc(C(=O)Nc3c(C)cccc3Cl)s2)cc(N2CCN(CCO)CC2)n1 [Dasatinib] (max 10 µM) ?
Output: 0.155

Input: area over the GR curve for NC(=O)Nc1cc(-c2cccc(F)c2)sc1C(=O)N[C@H]1CCCNC1 [AZD7762] (max 10 µM) ?
Output: 0.338

Input: area over the GR curve for COc1cc(N2CCN(C)CC2)ccc1Nc1ncc2c(n1)N(C)c1ccccc1C(=O)N2CC(F)(F)F ?
Output: 0.0771

Input: area over the GR curve for O=C1NC(=O)[C@@H](c2cn3c4c(cccc24)CCC3)[C@@H]1c1c[nH]c2ccccc12 [Tivantinib/ARQ197] (max 10 µM) ?
Output: 0.577

Input: area over the GR curve for CCNC(=O)c1noc(-c2cc(C(C)C)c(O)cc2O)c1-c1ccc(CN2CCOCC2)cc1 [Luminespib/NVP-AUY922] (max 1 µM) ?
Output: 0.689

Input: area over the GR curve for CCOc1cc2ncc(C#N)c(Nc3ccc(OCc4ccccn4)c(Cl)c3)c2cc1NC(=O)/C=C/CN(C)C [Neratinib/HKI272] (max 3.162 µM) ?
Output: 1.15

====

The following compounds are listed with their measured GRmax, 72 h values.
# Test system: AU565
# EXPERIMENT NOTES: GRmax, 72 h; higher = less effect
Put down the number, then write its unit next to it.

Some solved entries appear below for comparison.
O=C1NC(=O)[C@@H](c2cn3c4c(cccc24)CCC3)[C@@H]1c1c[nH]c2ccccc12 [Tivantinib/ARQ197] (max 10 µM)    -0.514 GR
CNCc1ccc(-c2[nH]c3cc(F)cc4c3c2CCNC4=O)cc1 [Rucaparib] (max 10 µM)    0.718 GR
CCc1cncnc1N1CCN(Cc2nc3ccc(C(F)(F)F)cc3[nH]2)CC1 (max 10 µM)    0.476 GR
Nc1cc(C(F)(F)F)c(-c2cc(N3CCOCC3)nc(N3CCOCC3)n2)cn1 [Buparlisib/NVP-BKM120] (max 10 µM)    -0.555 GR
CO[C@@H](C)Cn1c(=O)n(C)c2cnc3ccc(-c4cncc(C(C)(C)O)c4)cc3c21 (max 10 µM)    -0.533 GR
O=C(c1cc(Cc2n[nH]c(=O)c3ccccc23)ccc1F)N1CCN(C(=O)C2CC2)CC1 [Olaparib/AZD2281] (max 10 µM)    0.572 GR

In the following, a different compound is considered.
Input: GRmax, 72 h for CC(=O)Nc1cccc(-n2c(=O)n(C3CC3)c(=O)c3c(Nc4ccc(I)cc4F)n(C)c(=O)c(C)c32)c1 (max 1 µM) ?
Output: 1.01 GR

====

# System: ZR751
# EXPERIMENT NOTES: GRmax, 72 h; higher = less effect;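 also: breast cell lines in 384-well plates, nine doses across a 10^4 range, Dye Drop imaging of viable cells vs DMSO and time-zero plates, GR 0 means no net growth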
The following compounds are listed with their measured GRmax, 72 h values.
Kindly provide the numeric value in GR only, without the unit symbol.

Some solved entries appear below for comparison.
CN(C)C/C=C/C(=O)Nc1ccc(C(=O)Nc2cccc(Nc3ncc(Cl)c(-c4c[nH]c5ccccc45)n3)c2)cc1 [THZ1] (max 1 µM)    -0.163
C=CC(=O)Nc1ccc(C(=O)Nc2[nH]nc3c2CN(C(=O)N[C@H](CN(C)C)c2ccccc2)C3(C)C)cc1 [YKL-5-124] (max 10 µM)    0.13

Input: GRmax, 72 h for CCOc1cc2ncc(C#N)c(Nc3ccc(OCc4ccccn4)c(Cl)c3)c2cc1NC(=O)/C=C/CN(C)C [Neratinib/HKI272] (max 3.162 µM) ?
Output: 0.709

====

# Tested on: MDAMB361
# EXPERIMENT NOTES: area over the GR curve, 72 h; higher = more effect
RESULT TYPE: area over the GR curve

Some solved entries appear below for comparison.
CC(C)n1nc(-c2ccc3oc(N)nc3c2)c2c(N)ncnc21 [INK128/MLN0128] (max 3.162 µM)    1.1 GR
Cc1cc(Nc2ncc(Cl)c(Nc3ccccc3S(=O)(=O)C(C)C)n2)c(OC(C)C)cc1C1CCNCC1 [Ceritinib/LDK378] (max 10 µM)    0.546 GR
CNC(=O)c1cccc(-c2ccc3c(N4CCOC[C@@H]4C)nc(N4CCOC[C@@H]4C)nc3n2)c1 [AZD2014] (max 10 µM)    1.2 GR

Input: Entry CCC(=O)Nc1ccc(C(=O)Nc2ccc(Nc3ncc4c(n3)N(C)c3ccc(C)cc3C(=O)N4C)cc2)cc1 , system MDAMB361: what area over the GR curve was measured?
Output: 0.323 GR

Input: Entry C[C@@H]1COCCN1c1cc(C2([S@](C)(=N)=O)CC2)nc(-c2cc[nH]c3nccc2-3)n1 [AZD6738] (max 10 µM) , system MDAMB361: what area over the GR curve was measured?
Output: 0.161 GR

====

# Test system: HCC1187
# EXPERIMENT NOTES: area over the GR curve, 72 h; higher = more effect;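 also: Dye Drop or Deep Dye Drop imaging of viable cells in 384-well plates (Hoechst nuclei, LIVE/DEAD dye), nine half-log doses, GR normalized to DMSO controls and time-zero plates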
RESULT TYPE: area over the GR curve (GR)
Kindly provide the numeric value in GR only, without the unit symbol.

Some solved entries appear below for comparison.
COc1cc(N2CCN(C)CC2)ccc1Nc1ncc2c(n1)N(C)c1ccccc1C(=O)N2CC(F)(F)F [FMF-03-146-1]    -0.332
C=CCn1c(=O)c2cnc(Nc3ccc(N4CCN(C)CC4)cc3)nc2n1-c1cccc(C(C)(C)O)n1 [AZD1775] (max 10 µM)    0.822
CCC(=O)Nc1ccc(C(=O)Nc2ccc(Nc3ncc4c(n3)N(C)c3ccc(C)cc3C(=O)N4C)cc2)cc1 [FMF-03-145-1]    1.51
CC(=O)c1c(C)c2cnc(Nc3ccc(N4CCNCC4)cn3)nc2n(C2CCCC2)c1=O (max 3.162 µM)    0.268

Input: area over the GR curve for COc1cccc2c1C(=O)c1c(O)c3c(c(O)c1C2=O)C[C@@](O)(C(=O)CO)C[C@@H]3O[C@H]1C[C@H](N)[C@H](O)[C@H](C)O1 [Doxorubicin] (max 3.162 µM) ?
Output: 1.08

Input: area over the GR curve for C=CC(=O)Nc1ccc(C(=O)Nc2[nH]nc3c2CN(C(=O)N[C@H](CN(C)C)c2ccccc2)C3(C)C)cc1 [YKL-5-124] (max 10 µM) ?
Output: 0.822
